# assay.system: T1, human LRRC15 (leucine-rich repeat-containing protein 15), expressed on cells (human, UniProt Q8TF66 22-581)
# T1 construct: Cells: U118MG (endogenous), HCT116-huLRRC15, 3T12-huLRRC15 transfectants, TGFbeta-treated A549, human BM-MSC; also called huLRRC15; endogenous huLRRC15
# T1 sequence: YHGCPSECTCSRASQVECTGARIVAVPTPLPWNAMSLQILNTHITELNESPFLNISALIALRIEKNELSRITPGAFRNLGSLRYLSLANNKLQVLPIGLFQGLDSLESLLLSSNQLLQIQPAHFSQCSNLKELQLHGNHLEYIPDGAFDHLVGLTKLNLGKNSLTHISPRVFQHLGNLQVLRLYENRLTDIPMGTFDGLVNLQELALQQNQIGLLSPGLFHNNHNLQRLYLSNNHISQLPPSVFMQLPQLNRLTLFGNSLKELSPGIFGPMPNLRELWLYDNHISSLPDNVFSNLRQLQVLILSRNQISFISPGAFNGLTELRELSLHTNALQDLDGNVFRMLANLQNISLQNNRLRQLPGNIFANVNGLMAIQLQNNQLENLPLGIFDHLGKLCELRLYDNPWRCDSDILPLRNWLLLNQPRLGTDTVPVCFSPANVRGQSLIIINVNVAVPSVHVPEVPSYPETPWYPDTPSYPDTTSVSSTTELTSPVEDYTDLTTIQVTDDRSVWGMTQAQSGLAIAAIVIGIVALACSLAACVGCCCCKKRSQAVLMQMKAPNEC
# experiment.description: flow cytometry on U118MG cells
recorded.metric: pEC50
Lab note: report pEC50 as minus log10 of the concentration in molar units, number only.

For the binder muAD210.40.9 (antibody, V domains shown, Murine antibody; Compared with a muIgG2a isotype control) VH: QVQLQQSGAELVRPGTSVKISCKASGYDFTNYWLGWVKQRPGHGLEWIGDIYPGGGNTYYNEKLKGKATLTADKSSSTAYIHLISLTSEDSSVYFCARWGDKKGNYFAYWGQGTLVTVSA VL: QIVLTQSPAIMSASLGERVTMTCTASSSVYSSYLHWYQQKPGSSPKLWIYSTSNLASGVPGRFSGSGSGTSYSLTISSMEAEDAATYYCHQYHRSPTFGGGTKLEIK , give its measured pEC50 value.
10.10
